System Under Test: kinase domain protein of RC kinase (Homo sapiens, UniProt Q56UN5)
Sequence (Q56UN5 1061-1324 limits assumed): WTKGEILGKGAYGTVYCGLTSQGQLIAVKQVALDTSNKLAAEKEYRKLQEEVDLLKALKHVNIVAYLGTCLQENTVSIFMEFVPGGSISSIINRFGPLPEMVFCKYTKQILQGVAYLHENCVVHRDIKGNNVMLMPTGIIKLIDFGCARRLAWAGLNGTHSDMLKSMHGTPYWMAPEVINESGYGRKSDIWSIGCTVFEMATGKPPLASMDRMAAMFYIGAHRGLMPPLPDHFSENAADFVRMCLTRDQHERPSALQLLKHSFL
Procedure Text: Enzymatic assay for kinase inhibitory activity (Crebtide substrate, LANCE readout), kinase domain protein
Assay type: biochemical
Conditions Used: test compound 1 μM, ATP 1 μM, Crebtide 50 nM
Observable: inhibition at 1 µM

| Compound | Experimental Result |
| --- | --- |
| N#Cc1c(Nc2cccc(Cl)c2)n[nH]c1NCc1ccc(Oc2nccc(C(F)(F)F)n2)cc1 [Compound C1] | 5 to 20% |
| N#Cc1c(Nc2cccc(Cl)c2)n[nH]c1NCc1ccc(-n2cnc3ccccc32)cc1 [Compound C7] | 5 to 20% |
| NC(=O)c1c(Nc2ccc(CN3CCOCC3)cc2)n[nH]c1NCc1ccc(O)cc1 [Compound D134] | ≥ 50% |
| N#Cc1c(Nc2cccc(Cl)c2)n[nH]c1NCc1ccc(OC(F)F)c(O)c1 [Compound C17] | ≤ 5% |
| CC1CCN(C2CCN(c3ccc(Nc4n[nH]c(NCc5ccc(O)cc5)c4C(N)=O)cc3)CC2)CC1 [Compound D102] | ≥ 50% |
| NC(=O)c1c(Nc2ccc(N3CCN(c4ncccn4)CC3)cc2)n[nH]c1NCc1ccc(O)cc1 [Compound D124] | ≥ 50% |
| COc1ccc(C(F)(F)F)cc1CNc1[nH]nc(Nc2cccc(Cl)c2)c1C#N [Compound C14] | ≤ 5% |
| COc1ncc(CNc2[nH]nc(Nc3cccc(Cl)c3)c2C(N)=O)cn1 [Compound D87] | ≤ 5% |
